Test system: SNB-19 CNS
Assay: NCI tumour cell line growth inhibition, 48 h
Quick list: TGI per entry.

Would you please look over these solved cases?
compound	TGI
O=C(Nc1nc(-c2c[nH]c3ccccc23)cs1)c1n[nH]c(=O)c2ccccc12	> 75 µM
CSc1nc2c(c(N(C)C)n1)C(O)n1c(nc3ccccc31)S2 (stereo unspecified)	> 77.9 µM

Look at this compound and give its reported TGI. O=[N+]([O-])c1cc2oc(CSc3ccccc3)nc2cc1Cl
> 100 µM

###

# TGI per record follows
Tested on: CAKI-1 renal
Experiment: NCI tumour cell line growth inhibition, 48 h

Recorded results for 8 molecules are shown here.
molecule	propertyName	recordedResult
COC(=N)c1csc(C2OC(CO)C(O)C2O)n1 (stereo unspecified)	TGI	> 100 µM
CCOC(=O)Nc1c(C)nc2ccccn12	TGI	> 100 µM
Cc1ccc2c(c1)c1ccc3c(c1n2C)C(=O)C=CC3=O	TGI	4.17 µM
COc1cccc2c1O/C(=C\c1ccc([N+](=O)[O-])s1)C2=O	TGI	> 100 µM
CCOc1ccc(NC(=O)CC2SC(=Nc3ccc(C)cc3C)NC2=O)cc1 (stereo unspecified)	TGI	> 100 µM
COC(=O)c1c(C)cc(OC)c(C/C=C(\C)CCCc2coc(C=C(C)C)c2)c1OC	TGI	> 100 µM
COC(=O)/C=C/c1cc(OC(C)=O)c2c(c1)C(C(=O)OC)C(c1ccc(OC(C)=O)c(OC(C)=O)c1)O2 (stereo unspecified)	TGI	94 µM
CC[C@]1(O)C[C@H]2CN(CCc3c([nH]c4ccccc34)C(C(=O)OC)(c3cc4c(cc3OC)N(C)[C@H]3[C@@](O)(C(=O)OC)[C@H](OC(C)=O)[C@]5(CC)[C@@H]6C[C@@H]6CN6CC[C@]43[C@@H]65)C2)C1 (stereo partly specified)	TGI	6.17 µM

Lab note: need TGI for O=c1[nH]c(=O)n(C2CC(O)C(CO)O2)cc1OS(=O)(=O)C(F)(F)F (stereo unspecified) on CAKI-1 renal, anyone have it?
> 100 µM

What about this molecule? NNc1ncnc2nc[nH]c12
18.3 µM

Record: O[C@H]1[C@H](O)[C@@H](O)CN2CC[C@H](O)[C@H]12
> 100 µM

Same again, this time with CCCN(CCC)c1c([N+](=O)[O-])cc(C(=O)N(CC)CC)cc1[N+](=O)[O-]
> 100 µM

Now this one: O=C1N(Cc2ccccc2)C2CSCC2N1Cc1ccccc1 (stereo unspecified)
> 100 µM

Also O=C(NCCCl)O/N=C/c1cccnc1 ?
> 100 µM

// same read-out, input: O=[N+]([O-])c1cc2oc(CSc3ccccc3)nc2cc1Cl
> 100 µM

CCOC(=O)/C(C(C)=O)=C(\OC(C)=O)c1ccncc1C(=O)O ?
> 100 µM

Please do the same for Cc1cc(C)nc(NC(=S)Nc2ccc([N+](=O)[O-])cc2)c1 as well.
> 100 µM

Field entry: Cc1cc(C)nc(NS(=O)(=O)c2ccc(Nc3c4ccccc4nc4c(C(=O)N5CCN(CCO)CC5)cccc34)cc2)n1
> 100 µM

Now consider C=C(C)CNCCN .
> 100 µM

Follow-up entry: CNc1nncc2[nH]cnc12
> 100 µM

Subsequent entry: CCCCCCCC(=O)OCC1OC(n2cc(F)c(=O)[nH]c2=O)C(N)C(OC(=O)CCCCCCC)C1O (stereo unspecified)
41.5 µM
